Test system: Staphylococcus epidermidis
Experiment: Antibacterial activity against Staphylococcus epidermidis ATCC 35984 measured after overnight incubation by broth double-dilution method
Format: functional
Conditions: RP62A
metric: log10 MIC (log10 of the value in µg/mL)
The base-10 logarithm of MIC, taken with MIC in µg/mL, is what appears here.

[ask] Consider the molecule COc1cc(OC)cc(-n2sc3ccccc3c2=O)c1 tested on Staphylococcus epidermidis; state its log10 MIC.
[reply] -0.60

[ask] Specify log10 MIC for NCC[C@H](O)C(=O)N[C@@H]1C[C@H](N)[C@@H](O[C@H]2O[C@H](CN)[C@@H](O)[C@H](O)[C@H]2O)[C@H](O)[C@H]1O[C@H]1O[C@H](CO)[C@@H](O)[C@H](N)[C@H]1O [AMIKACIN] , system Staphylococcus epidermidis.
[reply] 1.19

[ask] Lab note: Staphylococcus epidermidis assay, enter log10 MIC for O=c1c2ccccc2sn1-c1cccc(Br)c1 here
[reply] 0.59

[ask] Identify measured log10 MIC obtained with Staphylococcus epidermidis for O=c1c2ccccc2sn1-c1ccc(Cl)cc1 .
[reply] 0.00

[ask] Retrieve log10 MIC on Staphylococcus epidermidis; query CC(C)(C)n1sc2ccccc2c1=O
[reply] 1.19

[ask] State measured log10 MIC of the molecule O=c1c2ccccc2[se]n1-c1ccccc1 [EBSELEN] with Staphylococcus epidermidis.
[reply] -0.60

[ask] Report log10 MIC on Staphylococcus epidermidis for this entry: O=c1c2ccccc2sn1-c1ccccn1
[reply] 0.59

[ask] # return log10 MIC for O=c1c2ccccc2sn1C1CCCCCCC1 , test system: Staphylococcus epidermidis
[reply] 0.59

[ask] Given O=c1c2ccccc2sn1CCc1ccccc1 , report its log10 MIC on Staphylococcus epidermidis.
[reply] 0.30

[ask] Provide log10 MIC, tested on Staphylococcus epidermidis, for CC(C)c1ccc(-n2sc3ccccc3c2=O)cc1 .
[reply] -0.60

[ask] // fetch log10 MIC for O=c1c2ccccc2sn1-c1ccc(Br)cc1 ; system: Staphylococcus epidermidis
[reply] 0.30

[ask] Retrieve log10 MIC on Staphylococcus epidermidis; query CCCCCCCCCCCCn1sc2ccccc2c1=O
[reply] -0.60

[ask] State, for Staphylococcus epidermidis, measured log10 MIC of the molecule listed here: O=c1c2ccccc2sn1CCCc1ccccc1
[reply] 0.30

[ask] Give the observed log10 MIC of CC(C)CCn1sc2ccccc2c1=O for Staphylococcus epidermidis.
[reply] 0.59

[ask] Provide the reported log10 MIC (system: Staphylococcus epidermidis) for O=c1c2ccccc2sn1-c1cccc2ccccc12
[reply] -0.60

[ask] Look up and report measured log10 MIC (Staphylococcus epidermidis) for the following molecule: CCCCCn1sc2ccccc2c1=O
[reply] 0.59

[ask] // output log10 MIC; input CCCCCCCCn1sc2ccccc2c1=O ; system Staphylococcus epidermidis
[reply] 0.00

[ask] // fetch log10 MIC; item: C#Cc1ccc(-n2sc3ccccc3c2=O)cc1 ; system: Staphylococcus epidermidis
[reply] 0.30

[ask] Check Staphylococcus epidermidis data and give log10 MIC for CCCCCCn1sc2ccccc2c1=O .
[reply] 0.30

[ask] Fill: log10 MIC (Staphylococcus epidermidis) for this molecule O=c1c2ccccc2sn1-c1ccc(F)cc1
[reply] 0.30

[ask] For Staphylococcus epidermidis, give log10 MIC of the listed molecule: O=c1c2ccccc2sn1C1CCCCCC1
[reply] 0.30

[ask] Enter log10 MIC (test system Staphylococcus epidermidis) for CC(C)c1cccc(-n2sc3ccccc3c2=O)c1
[reply] -0.60

[ask] // fetch log10 MIC; item: O=c1c2ccccc2sn1C1CCCC1 ; system: Staphylococcus epidermidis
[reply] 0.30

[ask] Please indicate recorded log10 MIC of CC(C)Cn1sc2ccccc2c1=O measured with Staphylococcus epidermidis.
[reply] 0.89

[ask] Give Staphylococcus epidermidis log10 MIC for the following molecule: Cc1cc(C)cc(-n2sc3ccccc3c2=O)c1
[reply] 0.59

[ask] Under Staphylococcus epidermidis: report log10 MIC of O=c1c2ccccc2sn1C1CCCCC1 .
[reply] 0.30

---

I'd be grateful if you could share measured MIC for these entries.
Test system: Staphylococcus aureus
Assay: Antibacterial activity against methicillin-resistant Staphylococcus aureus NRS77 measured after overnight incubation by broth double-dilution method
Assay type: functional
Number only, in µg/mL; omit the unit.

[ask] // fetch MIC for O=c1c2ccccc2sn1C1CCCCCCC1 ; system: Staphylococcus aureus
[reply] 2

[ask] State recorded MIC with Staphylococcus aureus, entry CC(C)c1cccc(-n2sc3ccccc3c2=O)c1 , no comment.
[reply] 0.5

[ask] Output reported MIC of the compound O=c1c2ccccc2sn1-c1ccc(Cl)cc1 on Staphylococcus aureus.
[reply] 3.9

[ask] Please respond with reported MIC (system Staphylococcus aureus) for CCCCCCn1sc2ccccc2c1=O .
[reply] 3.9

[ask] Specify MIC for O=c1c2ccccc2sn1CCc1ccccc1 , system Staphylococcus aureus.
[reply] 2

[ask] Quote MIC with test system Staphylococcus aureus for CCCCCCCCn1sc2ccccc2c1=O
[reply] 1

[ask] Check Staphylococcus aureus data and give MIC for NCC[C@H](O)C(=O)N[C@@H]1C[C@H](N)[C@@H](O[C@H]2O[C@H](CN)[C@@H](O)[C@H](O)[C@H]2O)[C@H](O)[C@H]1O[C@H]1O[C@H](CO)[C@@H](O)[C@H](N)[C@H]1O [AMIKACIN] .
[reply] 0.5

[ask] Supply MIC measured with Staphylococcus aureus for CC(C)CCn1sc2ccccc2c1=O .
[reply] 3.9

[ask] Enter measured MIC, system Staphylococcus aureus, for the compound shown: O=c1c2ccccc2sn1-c1cccc(Br)c1
[reply] 3.9

[ask] State MIC (Staphylococcus aureus) of O=c1c2ccccc2sn1-c1ccc(Br)cc1 .
[reply] 2

[ask] Please respond with reported MIC (system Staphylococcus aureus) for O=c1c2ccccc2sn1-c1cccc2ccccc12 .
[reply] 2

[ask] Report MIC under test system Staphylococcus aureus for O=c1c2ccccc2sn1-c1ccc(F)cc1 .
[reply] 3.9

---

Please go through the items and note down their MIC.
Tested on: Staphylococcus aureus
Assay: Antibacterial activity against methicillin-resistant Staphylococcus aureus G1 measured after overnight incubation by broth double-dilution method
Type: functional
Unit µg/mL implied. Number only.

[ask] Find MIC for O=c1c2ccccc2sn1CCc1ccccc1 on Staphylococcus aureus and write it down.
[reply] 0.5

[ask] Find MIC for O=c1c2ccccc2sn1C1CCCC1 on Staphylococcus aureus and write it down.
[reply] 2

[ask] Using Staphylococcus aureus as the test system, report measured MIC of O=c1c2ccccc2sn1CCCc1ccccc1 .
[reply] 0.5

[ask] Look up and report MIC, with Staphylococcus aureus as system, for O=c1c2ccccc2sn1-c1cccc2ccccc12
[reply] 2

[ask] Jot down MIC (Staphylococcus aureus) of CCCCCCCCCCCCn1sc2ccccc2c1=O .
[reply] 0.5

[ask] Retrieve MIC on Staphylococcus aureus; query O=c1c2ccccc2sn1-c1ccc(F)cc1
[reply] 2

[ask] Provide MIC, recorded with Staphylococcus aureus, of O=c1c2ccccc2sn1C1CCCCCC1
[reply] 0.5

[ask] // fetch MIC; item: CCCCCn1sc2ccccc2c1=O ; system: Staphylococcus aureus
[reply] 0.5

[ask] Write down measured MIC (Staphylococcus aureus) for this compound. O=c1c2ccccc2sn1C1CCCCCCC1
[reply] 1

[ask] Retrieve MIC on Staphylococcus aureus; query O=c1c2ccccc2sn1-c1cccc(Br)c1
[reply] 3.9

---

System: Listeria monocytogenes
Test: Antibacterial activity against Listeria monocytogenes ATCC 19115 measured after overnight incubation by broth double-dilution method
Assay type: functional
metric: MIC (µg/mL)
Reply with just the number (in µg/mL).

[ask] Assign MIC to the following record: O=c1c2ccccc2sn1CCCc1ccccc1
[reply] 2

[ask] Specify MIC for CCCCCCCCn1sc2ccccc2c1=O and stop.
[reply] 1

[ask] Please give the documented MIC of O=c1c2ccccc2sn1C1CCCCCC1
[reply] 3.9

[ask] Determine from records and report MIC for C#Cc1ccc(-n2sc3ccccc3c2=O)cc1
[reply] 3.9

[ask] Tell me measured MIC for O=c1c2ccccc2sn1C1CCCCC1 please.
[reply] 3.9

[ask] Note MIC for the molecule shown: O=c1c2ccccc2[se]n1-c1ccccc1
[reply] 1

[ask] // Input: CCCCCn1sc2ccccc2c1=O . Output its MIC only.
[reply] 3.9

[ask] Specify reported MIC for the molecule shown: COc1cc(OC)cc(-n2sc3ccccc3c2=O)c1
[reply] 2

[ask] Quick one: give measured MIC for NCC[C@H](O)C(=O)N[C@@H]1C[C@H](N)[C@@H](O[C@H]2O[C@H](CN)[C@@H](O)[C@H](O)[C@H]2O)[C@H](O)[C@H]1O[C@H]1O[C@H](CO)[C@@H](O)[C@H](N)[C@H]1O
[reply] 3.9

[ask] Query MIC for Cc1cc(C)cc(-n2sc3ccccc3c2=O)c1
[reply] 7.8

[ask] Answer with the recorded MIC of O=c1c2ccccc2sn1-c1ccc(F)cc1 only.
[reply] 2

[ask] // Input: CC(C)(C)n1sc2ccccc2c1=O . Output its MIC only.
[reply] 3.9

[ask] For CCCCCCCCCCCCn1sc2ccccc2c1=O , write its MIC.
[reply] 15.6

[ask] Give the reported value of MIC for this record: O=c1c2ccccc2sn1-c1ccccn1
[reply] 7.8

[ask] Specify reported MIC for the molecule shown: O=c1c2ccccc2sn1-c1ccc(Br)cc1
[reply] 2

[ask] Specify MIC for O=c1c2ccccc2sn1CCc1ccccc1 and stop.
[reply] 3.9
